- experimental-target: T1, Pgi8Cas13b (Porphyromonas gingivalis ATCC 33277, UniProt B2RL97 1-1119)
- T1 sequence: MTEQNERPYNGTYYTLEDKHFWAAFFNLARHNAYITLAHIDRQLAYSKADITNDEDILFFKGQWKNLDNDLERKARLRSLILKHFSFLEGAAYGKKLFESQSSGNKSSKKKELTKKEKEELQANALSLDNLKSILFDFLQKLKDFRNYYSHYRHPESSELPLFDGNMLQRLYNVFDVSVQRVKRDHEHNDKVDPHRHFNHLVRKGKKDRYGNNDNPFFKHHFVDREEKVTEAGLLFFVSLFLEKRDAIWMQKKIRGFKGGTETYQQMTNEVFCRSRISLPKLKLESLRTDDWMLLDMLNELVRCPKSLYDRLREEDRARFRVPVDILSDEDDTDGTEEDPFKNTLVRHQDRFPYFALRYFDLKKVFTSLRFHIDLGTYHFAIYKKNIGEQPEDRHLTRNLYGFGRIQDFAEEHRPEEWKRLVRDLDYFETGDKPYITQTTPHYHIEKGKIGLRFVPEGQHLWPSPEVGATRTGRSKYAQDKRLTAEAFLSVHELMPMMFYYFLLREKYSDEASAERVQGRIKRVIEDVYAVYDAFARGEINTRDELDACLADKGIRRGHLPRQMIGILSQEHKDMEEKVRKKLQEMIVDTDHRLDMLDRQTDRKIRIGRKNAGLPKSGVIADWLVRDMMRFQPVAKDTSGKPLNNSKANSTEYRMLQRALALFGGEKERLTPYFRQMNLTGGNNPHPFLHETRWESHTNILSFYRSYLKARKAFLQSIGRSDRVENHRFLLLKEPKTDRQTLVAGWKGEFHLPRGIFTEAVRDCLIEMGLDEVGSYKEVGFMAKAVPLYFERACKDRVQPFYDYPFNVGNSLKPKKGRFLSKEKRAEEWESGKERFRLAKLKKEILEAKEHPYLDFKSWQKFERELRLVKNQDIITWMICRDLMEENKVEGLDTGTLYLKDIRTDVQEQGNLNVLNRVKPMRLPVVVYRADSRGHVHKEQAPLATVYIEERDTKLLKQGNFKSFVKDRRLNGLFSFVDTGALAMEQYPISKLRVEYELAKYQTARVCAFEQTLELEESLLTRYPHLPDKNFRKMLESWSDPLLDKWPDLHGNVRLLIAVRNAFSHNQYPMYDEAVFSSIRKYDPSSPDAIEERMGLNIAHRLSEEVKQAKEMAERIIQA
- assay-procedure: EMSA
pKd: −log10 of the molar value.

>  <binder>
Pgi8 crRNA (SP2), Cy5 body-labeled (structured_RNA) RNA: GCAAGUGGAAUUAAUCUUUUUUCUUCUUUACGUUGGAUCUUCCCUCUAUUCGAAGGGUACACACAAC

>  <pKd>
7.74

$$$$
